Where do these numbers come from? They come from PubChem BioAssay (NCI).

Listing of entries alongside the reported growth inhibition.
# assay details: NCI Yeast Anticancer Drug Screen. Data for the rad50 strain (AID 155);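 also: 0% = growth of vehicle-only cultures of the same strain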
# condition description: S. cerevisiae rad50 strain growth inhibition; at 50.0 µM; hits give high values
The panel holds about 79,000 compounds, 15% with a hit somewhere; the sample as a whole holds those more often.
Note: unit % is implicit; provide only the numeric part.

Use these answered entries as a reference point.
[
  {
    "compound": "Cc1c(C(=O)CC(=O)C(=O)Nc2cccc(C(F)(F)F)c2)[n+](=O)c2ccccc2n1[O-]",
    "unit descriptor": "%",
    "growth inhibition": 45.8
  },
  {
    "compound": "COC(=O)c1c(C(=O)OC)c(C(c2ccccc2)c2ccccc2)n(-c2ccccc2)c1Cl",
    "unit descriptor": "%",
    "growth inhibition": -17.6
  },
  {
    "compound": "O=C(O)C(Cl)C(Cl)c1ccc(Cl)cc1 (stereo not given)",
    "unit descriptor": "%",
    "growth inhibition": -2.6
  },
  {
    "compound": "CSC(=Nc1ccc([N+](=O)[O-])cc1C#N)NC(=O)c1ccccc1",
    "unit descriptor": "%",
    "growth inhibition": -28.2
  },
  {
    "compound": "c1ccc(Oc2nnc3c4ccccc4ccn23)cc1",
    "unit descriptor": "%",
    "growth inhibition": 11.4
  }
]

Give the reported value of growth inhibition for this record: CCOC(=O)Nc1ccc(C2OCCS2)cc1 (stereo not given)
1.05

Give the reported value of growth inhibition for this record: O=C(O)c1cc2ccccc2c(N=Nc2cc(C(F)(F)F)ccc2Cl)c1O
-12.2

====

# assay details: NCI Yeast Anticancer Drug Screen. Data for the bub3 strain (AID 167)
# condition description: S. cerevisiae bub3 mutant strain, at 50.0 µM
This is part of a sample that, as a whole, favours compounds with a hit. Of some 79,000 tested, about 15% had one in any assay. Active and inactive are the calls of the source. Cut-off read from the data, not from the text of the source: active = growth inhibition above about 70%; inactive = the rest.
Pick one: active, inactive

Solved entries (count: 10):
[
  {
    "compound": "CC(CO)NCc1ccccc1 (stereo unspecified)",
    "class assignment": "inactive"
  },
  {
    "compound": "O=C1Nc2cc(F)ccc2C1=O",
    "class assignment": "inactive"
  },
  {
    "compound": "CCCCCCCCOC(=O)Nc1cccc2ccccc12",
    "class assignment": "inactive"
  },
  {
    "compound": "Cc1ccc(CO)c(O)c1",
    "class assignment": "inactive"
  },
  {
    "compound": "CCOP(=O)(OCC)C1C(C)N1C(=O)Nc1ccccc1 (stereo unspecified)",
    "class assignment": "inactive"
  },
  {
    "compound": "O=c1cc[nH]c2cc(C(F)(F)F)ccc12",
    "class assignment": "inactive"
  },
  {
    "compound": "O=C(Nc1ccccc1C(=O)N/N=C/c1ccccc1Cl)c1ccccc1Cl",
    "class assignment": "inactive"
  },
  {
    "compound": "Oc1[nH]c2ccccc2c1N=NC(=S)Nc1cccc(Cl)c1",
    "class assignment": "inactive"
  },
  {
    "compound": "O=C(NCCN1CCCCC1)c1ccc(I)cc1",
    "class assignment": "inactive"
  },
  {
    "compound": "C=CCCCCCCCCCCCCCCCCC",
    "class assignment": "inactive"
  }
]

Would you mind telling me which call this test gave NC(=O)c1[nH]c(/N=N/c2nc[nH]c2C(N)=O)nc1N ?
inactive

Would you mind telling me which call this test gave CN(C)CC1CCC(=C2CCCC2)C1=O (stereo unspecified) ?
inactive

Would you mind telling me which call this test gave CN(C)c1ncnc2c1cnn2-c1ccc(Cl)cc1 ?
inactive

Would you mind telling me which call this test gave CC(=O)c1cccc(NC(=O)Oc2ccc(Cl)cc2Cl)c1 ?
inactive

Would you mind telling me which call this test gave O=C(O)/C=C/C(=O)Nc1ccc(C(=O)O)cc1 ?
inactive

====

# assay details: NCI Yeast Anticancer Drug Screen. Data for the cln2 rad14 strain (AID 165);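 also: 0% = growth equal to vehicle treated cultures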
# condition description: S. cerevisiae cln2 rad14 strain, at 50.0 µM, hits give high values
About 79,000 compounds went through this panel and 15% of them were active in at least one assay; those are over-represented in the sample as a whole.
Listing of entries alongside the reported growth inhibition.
Note: unit % is implicit; provide only the numeric part.

Use these answered entries as a reference point.
[
  {
    "molecule": "O=C(COCC(=O)N/N=C/c1ccc(O)cc1)N/N=C/c1ccc(O)cc1",
    "reported property": "growth inhibition",
    "unit descriptor": "%",
    "assay value": -11.9
  },
  {
    "molecule": "CC(=O)O[C@H]1CCN2C(=O)C=CC(OCc3ccccc3)C12 (stereo not given in full)",
    "reported property": "growth inhibition",
    "unit descriptor": "%",
    "assay value": 13.2
  },
  {
    "molecule": "CC(=O)Nc1ccc(S(=O)(=O)CCS(=O)(=O)c2ccc(NC(C)=O)cc2)cc1",
    "reported property": "growth inhibition",
    "unit descriptor": "%",
    "assay value": -6.15
  },
  {
    "molecule": "CC1CC[P+](C)(c2ccccc2)c2ccccc21 (stereo not given)",
    "reported property": "growth inhibition",
    "unit descriptor": "%",
    "assay value": -4.6
  },
  {
    "molecule": "CC(=O)NNc1nc(C)c(C(=O)NNC(=O)C(=O)Nc2c(Cl)cc([N+](=O)[O-])cc2Cl)s1",
    "reported property": "growth inhibition",
    "unit descriptor": "%",
    "assay value": 29
  }
]

Give the reported value of growth inhibition for this record: C/C(=N/O)C1CC(C)([N+](=O)[O-])CCC1(C)O (stereo not given)
-8.5

Give the reported value of growth inhibition for this record: CCc1ccc(C(=O)O)o1
7.8

Give the reported value of growth inhibition for this record: CN(C)CCCNC(=O)N/N=C/c1ccc(O)cc1
17.8

Give the reported value of growth inhibition for this record: NCCCCC(N)C(=O)NCCNc1ccc(NCCNC(=O)C(N)CCCCN)c2c1C(=O)c1ccccc1C2=O (stereo not given)
-4.85

Give the reported value of growth inhibition for this record: CC1=CC(C)=C(C#N)C2=S=C(c3ccccc3)C(=O)N12
29.1

Give the reported value of growth inhibition for this record: CC(=O)Nc1cc(C)ccn1
-35

Give the reported value of growth inhibition for this record: CCOC(=O)C1(C)CCC(C(=O)OC)C1=O (stereo not given)
-5.45

Give the reported value of growth inhibition for this record: CN(C)c1cccc([N+](=O)[O-])c1
-32.5

Give the reported value of growth inhibition for this record: O=C(CCc1ccc(O)c(O)c1)NCCc1cc(OCc2ccccc2)cc(OCc2ccccc2)c1
87.5

Give the reported value of growth inhibition for this record: CCCCSc1nc(NCC)nc(NCC)n1
27.1

Give the reported value of growth inhibition for this record: COC(C)CCOC(=O)COc1ccccc1 (stereo not given)
-11.3

====

# assay details: NCI Yeast Anticancer Drug Screen. Data for the sgs1 mgt1 strain (AID 161);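 also: 0% = growth of cultures given vehicle only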
# condition description: S. cerevisiae sgs1 mgt1 strain, at 50.0 µM, hits give high values
This is part of a sample that, as a whole, favours compounds with a hit. Of some 79,000 tested, about 15% had one in any assay.
reported property: growth inhibition (%)
Note: unit % is implicit; provide only the numeric part.

Use these answered entries as a reference point.
[
  {
    "compound": "Cc1cnc(NCCCCNc2ncc(C)c(-c3ccccc3O)n2)nc1-c1ccccc1O",
    "assay value": -0.55
  },
  {
    "compound": "CC(C)[C@@H]1NC(=O)[C@@H]2N=C(O[C@H]2C)[C@H](C(C)C)NC(=O)C2N=C1O[C@H]2C",
    "assay value": 2.15
  },
  {
    "compound": "COCC(N=CN1CCCc2ccccc2[C@@H]1CCCCl)C(C)(C)C (some centres not stated)",
    "assay value": 25.9
  },
  {
    "compound": "O=C(Oc1c(Cl)cc(Cl)cc1Cl)c1ccc([N+](=O)[O-])cc1",
    "assay value": 5.45
  },
  {
    "compound": "C[N+](C)(C)c1cc[c]([Sn]([c]2ccc([N+](C)(C)C)cc2)([c]2ccc([N+](C)(C)C)cc2)[c]2ccc([N+](C)(C)C)cc2)cc1",
    "assay value": 20.2
  },
  {
    "compound": "Cc1ccccc1C(C#N)/C(=N/NC(=O)C(=O)NN)C(=O)Nc1cccc(C(F)(F)F)c1 (configuration not stated)",
    "assay value": 14.2
  },
  {
    "compound": "CC(=O)c1cc(C)ccc1Br",
    "assay value": -16.3
  },
  {
    "compound": "CCCCCCCCN(CCCCCCCC)CC(O)c1cc(-c2ccccc2)nc2c(-c3ccccc3)cccc12 (configuration not stated)",
    "assay value": 49.2
  }
]

Give the reported value of growth inhibition for this record: O=C1c2ccccc2C2(O)Nc3cc(O)ccc3C12O (configuration not stated)
-15.1

Give the reported value of growth inhibition for this record: C=CC(C)(C)C1=CC(=O)C(OC)=CC1=O
-3.7

Give the reported value of growth inhibition for this record: CN(C)C=Nc1cccc2c1NSN2
-1.35

Give the reported value of growth inhibition for this record: OCCN(CCO)c1ncnc2c1ncn2-c1ccc(CCCl)cc1
-2.85

Give the reported value of growth inhibition for this record: Oc1ccc(Br)cc1C(c1ccc2c(c1)OCO2)N1CCOCC1 (configuration not stated)
-7.8

Give the reported value of growth inhibition for this record: COc1cccc(NC(=O)N/C(=C/c2ccc(N(CCC#N)CCC#N)cc2)NC(=O)c2cc([N+](=O)[O-])ccc2Cl)c1
-3.15

Give the reported value of growth inhibition for this record: O=S(=O)(N/N=C/c1ccncc1)c1ccccc1
60.5

Give the reported value of growth inhibition for this record: CC(O)CN(CC(C)O)c1ccc2c(c1)Cc1ccccc1-2 (configuration not stated)
13.8

Give the reported value of growth inhibition for this record: CCOC(=O)C(NC(=O)c1ccccc1)(C(=O)OCC)c1ccccn1
9.65

Give the reported value of growth inhibition for this record: NCS(=O)(=O)O
-18.9

Give the reported value of growth inhibition for this record: CO/C=C1/CCc2c(ccc3cc(OC)ccc23)C1=O
10.5

Give the reported value of growth inhibition for this record: c1ccc2cc(CCc3cc4ccccc4cn3)ncc2c1
7

Give the reported value of growth inhibition for this record: CSC1NC(c2ccccc2)=C(C#N)C(=O)N1C1OCC(OC(C)=O)C(OC(C)=O)C1OC(C)=O (configuration not stated)
-39.2

Give the reported value of growth inhibition for this record: CCOC(=O)CC[C@@H](NC(=O)c1ccc(NCc2ccc3nc(OC)c(OC)nc3c2)cc1)C(=O)OCC
-4.15
